Molecular target: UniProt P53350
Test: PLK TR-FRET peptide assay, PLK1
Format: biochemical
Conditions: GST-PLK1, 60 min reaction
METRIC: IC50

Consider the reported IC50 for these compounds:
{"COMPOUND": "CC[C@@H]1C(=O)N(C)c2cnc(-c3ccncc3CNS(=O)(=O)c3ccccc3)nc2N1C1CCCC1 [Example 125]", "METRIC": "IC50", "ENDPOINT RESULT": "10 to 50 µM"}
{"COMPOUND": "CC[C@@H]1C(=O)N(C)c2cnc(-c3ccncc3NC(=O)c3ccccc3)nc2N1C1CCCC1 [Example 102]", "METRIC": "IC50", "ENDPOINT RESULT": "1 to 10 µM"}
{"COMPOUND": "CC[C@@H]1C(=O)N(C)c2cnc(-c3sc(Br)nc3-c3ccc(F)cc3)nc2N1C(C)C [Example 347]", "METRIC": "IC50", "ENDPOINT RESULT": "> 50 µM"}

// batch mode: one IC50 value per listed entry
1. CC[C@@H]1C(=O)N(C)c2cnc(-n3ccnc3-c3ccc(C(F)(F)F)cc3)nc2N1C1CCC1 [Example 171]
2. CC[C@@]12CCCN1c1nc(-n3ccnc3-c3cccc(Cl)c3)ncc1N(C)C2=O [Example 236]
3. CC[C@@H]1C(=O)N(C)c2cnc(-n3ccnc3N3CCOCC3)nc2N1C1CCCC1 [Example 87]
4. CN1C(=O)[C@H](CC(F)(F)F)N(CCC(F)(F)F)c2nc(-n3ccnc3)ncc21 [Example 302]
5. CC[C@@]12CCCN1c1nc(-n3ccnc3-c3cccc(OC(F)(F)F)c3)ncc1N(C)C2=O [Example 251]
6. CC[C@@H]1CC[C@@]2(CC)C(=O)N(C)c3cnc(-n4ccnc4)nc3N12 [Example 334]

Out:
1: 10 to 50 µM; 2: 1 to 10 µM; 3: 1 to 10 µM; 4: > 50 µM; 5: 10 to 50 µM; 6: 1 to 10 µM

// batch mode: one IC50 value per listed entry
1. CC[C@@]12CCCN1c1nc(-n3ccnc3-c3cc(Cl)cc(Cl)c3)ncc1N(C)C2=O [Example 184]
2. CC[C@@H]1C(=O)N(C)c2cnc(-c3ccncc3NC(C)=O)nc2N1C1CCCC1 [Example 115]
3. [2H]C([2H])([2H])N1C(=O)[C@@H](C([2H])([2H])C([2H])([2H])[2H])N(C([2H])(C([2H])([2H])[2H])C([2H])([2H])[2H])c2nc(-n3ccnc3-c3ccc(F)cc3)ncc21 [Example 200]
4. CC[C@@H]1C(=O)N(C)c2cnc(-c3ccncc3NC(=O)OC)nc2N1C(C)C [Example 117]
5. [2H]C([2H])([2H])N1C(=O)[C@H](C([2H])([2H])C([2H])([2H])[2H])N(C([2H])(C([2H])([2H])[2H])C([2H])([2H])[2H])c2nc(-n3ccnc3-c3ccc(F)cc3)ncc21 [Example 199]

Out:
10 to 50 µM
1 to 10 µM
1 to 10 µM
1 to 10 µM
10 to 50 µM

----------
Biological target: PLK1 (Homo sapiens, UniProt P53350)
Sequence (P53350 whole entry): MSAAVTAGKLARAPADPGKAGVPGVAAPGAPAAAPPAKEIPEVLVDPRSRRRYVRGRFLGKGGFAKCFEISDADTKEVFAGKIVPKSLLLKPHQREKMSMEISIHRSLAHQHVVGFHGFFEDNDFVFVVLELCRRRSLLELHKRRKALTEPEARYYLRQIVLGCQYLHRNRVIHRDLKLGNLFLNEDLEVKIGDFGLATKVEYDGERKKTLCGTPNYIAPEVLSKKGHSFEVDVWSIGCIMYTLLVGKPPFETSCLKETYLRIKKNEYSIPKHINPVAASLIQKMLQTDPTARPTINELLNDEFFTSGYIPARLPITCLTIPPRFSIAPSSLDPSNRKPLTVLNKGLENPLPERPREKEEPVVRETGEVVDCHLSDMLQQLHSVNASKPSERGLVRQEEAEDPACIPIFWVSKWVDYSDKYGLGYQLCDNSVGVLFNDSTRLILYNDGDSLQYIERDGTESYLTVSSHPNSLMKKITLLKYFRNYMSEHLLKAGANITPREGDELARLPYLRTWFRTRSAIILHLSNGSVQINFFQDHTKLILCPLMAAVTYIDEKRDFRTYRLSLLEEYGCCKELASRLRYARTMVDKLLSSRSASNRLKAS
Experiment: PLK TR-FRET peptide assay, PLK1
Format: biochemical
Settings: GST-PLK1, 60 min reaction
pIC50: −log10 of the molar value.
Could you please report measured pIC50 for the items listed next?

// batch mode: one pIC50 value per listed entry
1. CCC12CCCCCN1c1nc(-n3ccnc3-c3ccccc3)ncc1N(C)C2=O (racemic) [Example 205]
2. CC[C@@H]1C(=O)N(C)c2cnc(-n3ccnc3-c3cccc(F)c3)nc2N1C1CC(F)(F)C1 [Example 194]
3. CN1C(=O)[C@H]2CCCCN2c2nc(-c3ccncc3)ncc21 [Example 25]
4. CCC12CCCCN1c1nc(-n3ccnc3-c3cc(F)c(F)c(F)c3)ncc1N(C)C2=O (racemic) [Example 256]
5. CC[C@@]12CCCN1c1nc(-n3ncnc3-c3cccc4ncccc34)ncc1N(C)C2=O [Example 219]
6. CC[C@@H]1C(=O)N(C)c2cnc(-n3nccc3-c3ccccc3)nc2N1C1CCC1 [Example 207]
7. CC[C@@]12CCCN1c1nc(-c3cn[nH]c3-c3nccs3)ncc1N(C)C2=O [Example 338]

Out:
["4.30 to 5.00", "> 6.00", "< 4.30", "< 4.30", "4.30 to 5.00", "> 6.00", "< 4.30"]

In: Bench note: what pIC50 did CC[C@@H]1C(=O)N(C)c2cnc(-c3ccc(S(C)(=O)=O)cc3)nc2N1C1CCCC1 [Example 64] show?
Out: > 6.00

----------
Target: PLK2 (Homo sapiens)
Assay: PLK TR-FRET peptide assay, PLK2
Assay type: biochemical
Settings: PLK TR-FRET peptide assay, GST-PLK2, 60 min reaction; read-out: Plk2 IC50
Could you please report measured IC50 for the items listed next?

Consider the reported IC50 for these compounds:
{"COMPOUND": "[2H]C([2H])([2H])N1C(=O)C(C([2H])([2H])C([2H])([2H])[2H])N(C([2H])(C([2H])([2H])[2H])C([2H])([2H])[2H])c2nc(-n3ccnc3-c3ccc(C(F)(F)F)cc3)ncc21 (stereo not shown) [Example 161]", "METRIC": "IC50", "ENDPOINT RESULT": "< 1 µM"}
{"COMPOUND": "CC[C@@H]1C(=O)N(C)c2cnc(-n3ccnc3N3CCCC3=O)nc2N1C1CCCC1 [Example 82]", "METRIC": "IC50", "ENDPOINT RESULT": "1 to 10 µM"}
{"COMPOUND": "CC[C@@H]1C(=O)N(C)c2cnc(-c3nccnc3-c3ccc(F)cc3)nc2N1C(C)C [Example 177]", "METRIC": "IC50", "ENDPOINT RESULT": "< 1 µM"}

// batch mode: one IC50 value per listed entry
1. CC[C@@H]1C(=O)N(C)c2cnc(-n3ccnc3-c3cc(Cl)cc(Cl)c3)nc2N1C(C)C [Example 185]
2. CN1C(=O)C2(CC(F)(F)F)CCCN2c2nc(-n3ccnc3-c3ccccc3)ncc21 (stereo not shown) [Example 339]
3. CCC12CCCCN1c1nc(-n3ccnc3-c3cccc(F)c3F)ncc1N(C)C2=O (racemic) [Example 248]
4. CC[C@@H]1C(=O)N(C)c2cnc(N3CCN=C3C3CC3)nc2N1C(C)C [Example 297]
5. CCC1C(=O)N(C)c2cnc(-n3cc[n+](C)c3-c3ccccc3)nc2N1NC (stereo not shown) [Example 284]
6. CN1C(=O)C2CC3CC3N2c2nc(-n3ccnc3-c3ccccc3)ncc21 (stereo not shown) [Example 304]

Out:
1: < 1 µM; 2: < 1 µM; 3: < 1 µM; 4: 10 to 50 µM; 5: > 50 µM; 6: 10 to 50 µM

// batch mode: one IC50 value per listed entry
1. CC[C@@H]1C(=O)N(C)c2cnc(-c3cnoc3-c3ccc(F)cc3)nc2N1C(C)C [Example 173]
2. CC[C@@H]1C(=O)N(C)c2cnc(-c3ccncc3NC(=O)OC)nc2N1C1CCCC1 [Example 114]

Out:
["< 1 µM", "< 1 µM"]

// batch mode: one IC50 value per listed entry
1. CC[C@@H]1C(=O)N(C)c2cnc(-c3ccncc3CNC(C)=O)nc2N1C(C)C [Example 129]
2. CC[C@@H]1C(=O)N(C)c2cnc(-n3nccc3-c3ccccc3)nc2N1C1CCC1 [Example 207]
3. CC[C@@H]1C(=O)N(C)c2cnc(-c3ccccc3)nc2N1C1CCCC1 [Example 12]
4. CC[C@@H]1C(=O)N(C)c2cnc(-n3ncnc3-c3ccccc3)nc2N1C1CCC1 [Example 208]

Out:
10 to 50 µM
< 1 µM
1 to 10 µM
< 1 µM

// batch mode: one IC50 value per listed entry
1. CC[C@]12CCCCN1c1nc(-n3ccnc3-c3cccc(F)c3F)ncc1N(C)C2=O [Example 261]
2. CC[C@@H]1C(=O)N(C)c2cnc(-c3ccncc3NC(C)=O)nc2N1C1CCCC1 [Example 115]

Out:
1: 1 to 10 µM; 2: < 1 µM

----------
Target: PLK2 (Homo sapiens, UniProt Q9NYY3)
Sequence (Q9NYY3 whole entry): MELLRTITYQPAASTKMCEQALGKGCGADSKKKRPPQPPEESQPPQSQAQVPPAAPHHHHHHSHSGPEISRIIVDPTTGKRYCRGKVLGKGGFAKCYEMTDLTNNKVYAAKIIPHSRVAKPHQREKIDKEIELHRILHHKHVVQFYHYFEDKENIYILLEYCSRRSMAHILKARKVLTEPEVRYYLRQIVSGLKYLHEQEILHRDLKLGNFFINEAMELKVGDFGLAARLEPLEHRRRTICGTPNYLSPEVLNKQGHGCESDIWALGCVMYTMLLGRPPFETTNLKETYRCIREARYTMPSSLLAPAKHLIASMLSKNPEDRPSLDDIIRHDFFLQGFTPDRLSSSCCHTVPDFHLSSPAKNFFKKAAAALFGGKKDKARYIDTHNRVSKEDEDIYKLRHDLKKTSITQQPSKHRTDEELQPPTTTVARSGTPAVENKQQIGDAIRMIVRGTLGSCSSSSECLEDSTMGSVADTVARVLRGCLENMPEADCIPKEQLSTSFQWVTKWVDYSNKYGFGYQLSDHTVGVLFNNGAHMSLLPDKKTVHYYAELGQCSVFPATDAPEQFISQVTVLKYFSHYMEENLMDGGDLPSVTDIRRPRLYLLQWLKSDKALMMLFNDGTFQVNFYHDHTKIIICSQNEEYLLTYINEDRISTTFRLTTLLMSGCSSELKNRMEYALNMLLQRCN
Experiment: PLK TR-FRET peptide assay, PLK2
Type: biochemical
Settings: PLK TR-FRET peptide assay, GST-PLK2, 60 min reaction; read-out: Plk2 IC50
Could you please report measured IC50 for the items listed next?

Consider the reported IC50 for these compounds:
{"COMPOUND": "CC[C@@H]1C(=O)N(C)c2cnc(-n3ccnc3-c3ccccc3F)nc2N1C1CCC1", "IC50": "< 1000 nM"}
{"COMPOUND": "CC[C@@H]1C(=O)N(C)c2cnc(-c3c[nH]nc3-c3ccccc3)nc2N1C(C)C", "IC50": "< 1000 nM"}
{"COMPOUND": "CC[C@@H]1C(=O)N(C)c2cnc(-c3ccncc3CNC(C)=O)nc2N1C1CCCC1", "IC50": "1000 to 10000 nM"}

// batch mode: one IC50 value per listed entry
1. CC[C@@H]1C(=O)N(C)c2cnc(-c3cn[nH]c3-c3ccccn3)nc2N1C(C)C
2. CC[C@@H]1C(=O)N(C)c2cnc(-c3ccncc3N)nc2N1C(C)C

Out:
1. < 1000 nM
2. < 1000 nM

// batch mode: one IC50 value per listed entry
1. CC[C@@H]1C(=O)N(C)c2cnc(-c3cn[nH]c3)nc2N1C(C)C
2. CC[C@@H]1C(=O)N(C)c2cnc(-n3ccnc3-c3ccccc3)nc2N1C(C)C1CC1 (some centres unmarked)
3. CC[C@@H]1C(=O)N(C)c2cnc(-c3ccncc3CNC(=O)c3ccccc3)nc2N1C1CCCC1

Out:
1. < 1000 nM
2. < 1000 nM
3. 10000 to 50000 nM
